inhibition at 20 µg/mL: recorded values
- Target Of Assay: lipase from porcine pancreas (Type II) (Sus scrofa)
- Construct: lipase from porcine pancreas (Type II); purchased Sigma Chemical, Inc. (St. Louis, MO, USA); host or cells: porcine pancreas
- Sequence (P00591 1-450): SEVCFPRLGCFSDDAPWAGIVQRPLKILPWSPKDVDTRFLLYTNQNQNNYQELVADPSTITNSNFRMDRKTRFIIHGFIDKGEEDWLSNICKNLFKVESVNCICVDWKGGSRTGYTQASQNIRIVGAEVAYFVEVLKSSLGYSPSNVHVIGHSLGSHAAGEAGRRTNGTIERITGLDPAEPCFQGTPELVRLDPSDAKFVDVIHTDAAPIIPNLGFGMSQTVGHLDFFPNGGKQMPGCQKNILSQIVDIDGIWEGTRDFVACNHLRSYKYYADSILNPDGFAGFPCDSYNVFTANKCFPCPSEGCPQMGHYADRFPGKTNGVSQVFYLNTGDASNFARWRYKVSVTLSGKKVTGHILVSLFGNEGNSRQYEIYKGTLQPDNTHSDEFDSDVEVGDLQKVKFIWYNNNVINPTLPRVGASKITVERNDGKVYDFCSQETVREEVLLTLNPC
- Measurement Protocol: Lipase inhibitory activity assay (4MUO substrate)
- Assay type: biochemical
Return type: number; implicit unit %.

Before answering, review these 3 worked examples.
If you can, please state the reported inhibition at 20 µg/mL value of CC(C)=CCC/C(C)=C/CO [Compound 2, Geraniol] .
30.6

What about this molecule? O=C(CC(c1ccccc1)c1c(O)cc2c(c1O)C(=O)CC(c1ccccc1)O2)c1c(O)cc(O)cc1O (stereo not shown) [Compound 13, de-O-methyl rotundaflavanochalcone]
80.5

Then this molecule: O=C(CCc1ccccc1)c1c(O)cc(O)cc1O [Compound 10, 2′,4′,6′-Trihydroxydihydrochalcone]
48.7

For the next question, use this molecule.
// lookup inhibition at 20 µg/mL for COc1cc(O)cc(O)c1C(=O)/C=C/c1ccccc1 [Compound 6, Cardamonin]
7.7

###

- Test system: Yeast α-glucosidase enzyme
- Measurement Protocol: α-Glucosidase inhibitory activity assay (PNPG hydrolysis)
- Type: biochemical
- Measurement Context: at 20 µg/mL
Known α-Glucosidase % Inhibition (at 20 µg/mL) of a selection of compounds
Report as a plain number; the unit % is understood.

Reference set, count: 5
Entry COc1cc(O)cc2c1C(=O)CC(c1ccc(O)cc1)O2 (stereo not drawn) [Compound 15, 4′-7-Dihydroxy-5-methoxyflavanone] , system Yeast α-glucosidase enzyme: what α-Glucosidase % Inhibition (at 20 µg/mL) was measured?
20.9

Another compound: COc1cc(O)c(C(=O)[C@@H]2[C@H](CC=C(C)C)C(C)=CC[C@H]2c2ccccc2)c(O)c1 [Compound 3, Panduratin A]
94.7

Subsequent entry: O=C(CC(c1ccccc1)c1c(O)cc2c(c1O)C(=O)CC(c1ccccc1)O2)c1c(O)cc(O)cc1O (stereo not drawn) [Compound 13, de-O-methyl rotundaflavanochalcone]
100.0

Try the compound COc1cc(O)cc(O)c1C(=O)/C=C/c1ccc(O)cc1 [Compound 14, 4,4′,6′-trihydroxy-2′-methoxychalcone]
97.1

Here is the next compound: O=C1C[C@@H](c2ccccc2)Oc2cc(O)cc(O)c21 [Compound 5, Pinocembrin]
19.8

Okay, now this compound:
Look up α-Glucosidase % Inhibition (at 20 µg/mL) with Yeast α-glucosidase enzyme for this compound: COc1cc(O)c(C(=O)CC(c2ccccc2)c2c(O)cc3c(c2O)C(=O)CC(c2ccccc2)O3)c(O)c1 (stereo not drawn) [Compound 9, rotundaflavanochalcone]
100.0
